B1: tRNA (parent)
chain: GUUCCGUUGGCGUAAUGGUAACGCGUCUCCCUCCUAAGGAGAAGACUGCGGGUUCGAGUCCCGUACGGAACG

# Variants of: B1
# assay method text: yeast fitness, log relative to wild type (ln ratio); higher = fitter; tRNA-Arg(CCU), competitive growth, 37 C, 1 M NaCl
measured property: yeast fitness (ln)

AUUCCGUUGGCGUAAUGGUAACGCGUUUCCCUCCUAAGGAGAAGACUGCGGGUUCGAGUCCCGUAUGGAGUG ... -0.225
GUUCCGUUGGCGUAAUGGUAACGCGUCUCCCUCCUAAGGAGAAGACUGCGGGUUCGAGUCCCGUAUGGGAUG ... -0.166
ACUCCGUUGGCGUAAUGGUAACGCGUCUCCCUCCUAAGGAGACGAUUGCGGGUUCGAGUCCCGUACGGAUUG ... -0.0746
AGUCCGUUGGCGUAAUGGUAACGCGUCUCCCUCCUAAGGAGACGACUGCGGGUUCGAGUCCCGUACGGAUUG ... -0.0335
GCUCCUUUGGCGUAAUGGUAACGCGUUUCCCUCCUAAGGAGAAGAUUGCGGGUUCGAGUCCCGUACGGGUUG ... -0.334
GCUCCUUUGGCGUAAUGGUAACGCGUUUCCCUCCUAAGGAGACGAUUGCGGGUUCGAGUCCCGUAAGGGGUG ... -0.0738
AUUCCUUUGGCGUAAUGGUAACGCGUCUCCCUCCUAAGGAGACGACUGCGGGUUCGAGUCCCGUAAGGAUUG ... -0.386
GUUCCAUUGGCGUAAUGGUAACGCGUCUCCCUCCUAAGGAGAAGACUGCGGGUUCGAGUCCCGUACGGAUUG ... -0.14
GUUCCUUUGGCGUAAUGGUAACGCGUCUCCCUCCUAAGGAGACGAUUGCGGGUUCGAGUCCCGUAAGGAUUG ... -0.214
AUUCCUUUGGCGUAAUGGUAACGCGUCUCCCUCCUAAGGAGACGAUUGCGGGUUCGAGUCCCGUAAGGGGUG ... -0.393
GGUCCUUUGGCGUAAUGGUAACGCGUCUCCCUCCUAAGGAGAAGACUGCGGGUUCGAGUCCCGUACGGGGUG ... -0.235
GUUCCUUUGGCGUAAUGGUAACGCGUCUCCCUCCUAAGGAGACGAUUGCGGGUUCGAGUCCCGUAAGGAGCG ... -0.0224
GUUCCAUUGGCGUAAUGGUAACGCGUUUCCCUCCUAAGGAGAAGACUGCGGGUUCGAGUCCCGUACGGGGCG ... -0.12
GUUCCAUUGGCGUAAUGGUAACGCGUCUCCCUCCUAAGGAGAAGAUUGCGGGUUCGAGUCCCGUAUGGGGUG ... -0.581
GUUCCGUUGGCGUAAUGGUAACGCGUUUCCCUCCUAAGGAGACGACUGCGGGUUCGAGUCCCGUACGGAUUG ... -0.181
AUUCCGUUGGCGUAAUGGUAACGCGUUUCCCUCCUAAGGAGACGAUUGCGGGUUCGAGUCCCGUAAGGGGCG ... -0.189
GUUCCUUUGGCGUAAUGGUAACGCGUCUCCCUCCUAAGGAGACGACUGCGGGUUCGAGUCCCGUACGGGUUG ... -0.447
GCUCCUUUGGCGUAAUGGUAACGCGUUUCCCUCCUAAGGAGAAGAUUGCGGGUUCGAGUCCCGUACGGGGUG ... -0.244
GCUCCGUUGGCGUAAUGGUAACGCGUUUCCCUCCUAAGGAGAAGACUGCGGGUUCGAGUCCCGUAAGGAGUG ... -0.157
GUUCCUUUGGCGUAAUGGUAACGCGUUUCCCUCCUAAGGAGAAGAUUGCGGGUUCGAGUCCCGUAUGGAGCG ... -0.207
GCUCCAUUGGCGUAAUGGUAACGCGUCUCCCUCCUAAGGAGAAGAUUGCGGGUUCGAGUCCCGUAUGGGACG ... -0.293
GGUCCAUUGGCGUAAUGGUAACGCGUUUCCCUCCUAAGGAGAAGAUUGCGGGUUCGAGUCCCGUACGGAUUG ... -0.143
AUUCCAUUGGCGUAAUGGUAACGCGUCUCCCUCCUAAGGAGACGACUGCGGGUUCGAGUCCCGUAUGGAUCG ... -0.374
AUUCCGUUGGCGUAAUGGUAACGCGUUUCCCUCCUAAGGAGACGACUGCGGGUUCGAGUCCCGUACGGGGUG ... -0.299
GUUCCAUUGGCGUAAUGGUAACGCGUUUCCCUCCUAAGGAGAAGAUUGCGGGUUCGAGUCCCGUACGGAGUG ... -0.206
GUUCCAUUGGCGUAAUGGUAACGCGUUUCCCUCCUAAGGAGAAGACUGCGGGUUCGAGUCCCGUACGGGUCG ... -0.243
GGUCCGUUGGCGUAAUGGUAACGCGUCUCCCUCCUAAGGAGAAGACUGCGGGUUCGAGUCCCGUACGGGUUG ... -0.25
GUUCCGUUGGCGUAAUGGUAACGCGUCUCCCUCCUAAGGAGAAGAUUGCGGGUUCGAGUCCCGUACGGAUUG ... -0.129
GCUCCUUUGGCGUAAUGGUAACGCGUCUCCCUCCUAAGGAGACGACUGCGGGUUCGAGUCCCGUAAGGAACG ... -0.135
GUUCCAUUGGCGUAAUGGUAACGCGUUUCCCUCCUAAGGAGACGACUGCGGGUUCGAGUCCCGUACGGGGCG ... -0.264
GCUCCGUUGGCGUAAUGGUAACGCGUUUCCCUCCUAAGGAGACGAUUGCGGGUUCGAGUCCCGUACGGGACG ... -0.0409
AGUCCAUUGGCGUAAUGGUAACGCGUUUCCCUCCUAAGGAGACGAUUGCGGGUUCGAGUCCCGUAUGGAUCG ... -0.226
AUUCCGUUGGCGUAAUGGUAACGCGUCUCCCUCCUAAGGAGACGACUGCGGGUUCGAGUCCCGUACGGAGUG ... -0.095
AGUCCAUUGGCGUAAUGGUAACGCGUUUCCCUCCUAAGGAGACGACUGCGGGUUCGAGUCCCGUACGGAUCG ... -0.26
AUUCCAUUGGCGUAAUGGUAACGCGUCUCCCUCCUAAGGAGACGAUUGCGGGUUCGAGUCCCGUACGGGUUG ... -0.473
GCUCCGUUGGCGUAAUGGUAACGCGUCUCCCUCCUAAGGAGACGAUUGCGGGUUCGAGUCCCGUAUGGGAUG ... -0.25
GGUCCAUUGGCGUAAUGGUAACGCGUCUCCCUCCUAAGGAGAAGAUUGCGGGUUCGAGUCCCGUAUGGGACG ... -0.163
GGUCCGUUGGCGUAAUGGUAACGCGUCUCCCUCCUAAGGAGAAGACUGCGGGUUCGAGUCCCGUACGGAGUG ... -0.268
AUUCCUUUGGCGUAAUGGUAACGCGUCUCCCUCCUAAGGAGACGAUUGCGGGUUCGAGUCCCGUAUGGGUUG ... -0.429
GCUCCGUUGGCGUAAUGGUAACGCGUUUCCCUCCUAAGGAGACGACUGCGGGUUCGAGUCCCGUACGGAGUG ... -0.0236
GCUCCGUUGGCGUAAUGGUAACGCGUUUCCCUCCUAAGGAGACGACUGCGGGUUCGAGUCCCGUAUGGGUCG ... -0.439
GUUCCUUUGGCGUAAUGGUAACGCGUUUCCCUCCUAAGGAGAAGACUGCGGGUUCGAGUCCCGUACGGGUCG ... -0.214
AGUCCUUUGGCGUAAUGGUAACGCGUUUCCCUCCUAAGGAGACGACUGCGGGUUCGAGUCCCGUACGGAACG ... -0.3
